Origin of the recorded values: PubChem BioAssay AID1918946

Test system: 885512-296-R-J2-PDC complex spheroid viability;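 further: spheroids exposed to agents for 7 days before viability read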
experimental protocol: Anticancer human tumor 885512-296-R-J2-PDC patient-derived breast carcinoma cell line growth inhibition
particulars: second compound 1 µM; first compound 3.16 µM; active compounds read low
readout type: viability, T/C (%)
Kindly answer with a numeric value in %, unit omitted.

QUERY: Request body: readout viability, T/C, system 885512-296-R-J2-PDC complex spheroid viability, query O=C(c1cc(Cc2n[nH]c(=O)c3ccccc23)ccc1F)N1CCN(C(=O)C2CC2)CC1 + NC1CCC(NC2CC2c2ccccc2)CC1 . Return the value.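 Further: spheroids exposed to agents for 7 days before viability read.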
RESULT: 10.9

QUERY: Next record, please: CC1COCCN1c1cc(C2(S(C)(=N)=O)CC2)nc(-c2ccnc3[nH]ccc23)n1 (configuration not stated) + NC1CCC(NC2CC2c2ccccc2)CC1
RESULT: 7

QUERY: Next record, please: CC1(C)CCC(CN2CCN(c3ccc(C(=O)NS(=O)(=O)c4ccc(NCC5CCOCC5)c([N+](=O)[O-])c4)c(Oc4cnc5[nH]ccc5c4)c3)CC2)=C(c2ccc(Cl)cc2)C1 + NC1CCC(NC2CC2c2ccccc2)CC1
RESULT: 73.1

QUERY: Next record, please: COc1ccc([C@@H](O)c2cc(-c3ncnc4cc(N5CCOCC5)ccc34)c(F)cc2Cl)nn1 + NC1CCC(NC2CC2c2ccccc2)CC1
RESULT: 36.6

QUERY: Next record, please: CC1COCCN1c1cc(C2(S(C)(=N)=O)CC2)nc(-c2ccnc3[nH]ccc23)n1 (configuration not stated) + NC1CC1c1ccc(-c2cccc(O)c2)cc1
RESULT: 3.25

---
QUERY: Request body: readout viability, T/C, system 885512-296-R-J2-PDC complex spheroid viability, query O=C(c1cc(Cc2n[nH]c(=O)c3ccccc23)ccc1F)N1CCN(C(=O)C2CC2)CC1 + NC1CC1c1ccc(-c2cccc(O)c2)cc1 . Return the value.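 Further: spheroids exposed to agents for 7 days before viability read.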
RESULT: 13.3

QUERY: Next record, please: CC(C)c1c(-c2ccccc2)nc2c(C#N)c[nH]n2c1=O + NC1CC1c1ccc(-c2cccc(O)c2)cc1
RESULT: 125
